# methodSummary: qHTS Assay for Lipid Storage Modulators in Drosophila S3 Cells
# testConditions: BODIPY lipid droplet fluorescence, 18-24 h, cells fed with added oleic acid; series mostly up to 46.1 µM
The whole screen tested about 320,000 compounds, of which about 2,100 (0.66%) were called active. About 53% were inconclusive and are not listed. Calls follow the shape of the dose curve; as a rule, active = well fitted inhibition curve with a large enough effect in the signal ratio, with a control signal flat (not every such curve was filed as active); inconclusive = small, poorly fitted or top-dose-only effect, or effect the other way, or a change in a side signal; inactive = flat fitted curve, though single readings scatter; the % refers to the signal ratio. What follows is part of a selection rich in actives, with near analogues and random picks from the rest.
Returns: one label drawn from active, inactive

Input line: Tell me the assay call for `Cc1ccccc1OC(=O)CCC(=O)OCCCC(F)(F)C(F)(F)F` please.
Output line: active

Input line: Next molecule up: `O=[N+]([O-])c1cc([N+](=O)[O-])c2n[nH]c(-c3ccccc3)c2c1`
Output line: inactive

----------
# methodSummary: qHTS Assay for Lipid Storage Modulators in Drosophila S3 Cells
# testConditions: BODIPY lipid droplet fluorescence, 18-24 h, cells fed with added oleic acid; series mostly up to 46.1 µM
Among all 320,000 compounds or so, about 2,100 (0.66%) were called active. Another 53% or so got no clear call; they are omitted. The call rests on the fitted dose curve; in most records, active means well fitted inhibition curve with a large enough effect in the signal ratio, with a control signal flat (not every such curve was filed as active); inconclusive means small, poorly fitted or top-dose-only effect, or effect the other way, or a change in a side signal; inactive means flat fitted curve, though single readings scatter; the % refers to the signal ratio. The entries come from a sample that favours actives as a whole.
Returns: one label drawn from T = active, F = inactive

>>> answerlabel("COc1ccc(N2CCN(Cc3nc(N)nc(Nc4ccccc4OC)n3)CC2)cc1")
"F"
>>> answerlabel("CN(C)CCNc1oc(-c2cccc(Cl)c2)nc1C#N")
"F"

Input line: Tell me the assay call for Cc1ccc(C(=O)NCC(c2ccco2)N2CCCCC2)s1 (stereo unspecified) please.
Output line: F

Input line: Next molecule up: `O=C(NCc1n[nH]c(=S)n1-c1ccccc1)c1ccc(S(=O)(=O)N2CCCCC2)cc1`
Output line: F

Input line: Next molecule up: `CN(C)CCCNc1oc(-c2cccc(Cl)c2)nc1C#N`
Output line: T

Input line: Next molecule up: `CCN(CC)CCCNc1oc(-c2ccc(OC)c(OC)c2)nc1C#N`
Output line: F

----------
# methodSummary: qHTS Assay for Lipid Storage Modulators in Drosophila S3 Cells;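 as to cell number change: cells counted by Cell Tracker Red CMTPX staining in the red channel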
# testConditions: BODIPY lipid droplet fluorescence, 18-24 h, cells fed with added oleic acid; measured here: cell count max response
Among all 320,000 compounds or so, about 2,100 (0.66%) were called active. Inconclusive results (about 53%) are left out. This excerpt belongs to a sample that is enriched for actives.
Quick reference: cell number change of the listed items.
Respond with the bare value in %.

See these solved cases before continuing.
>>> number("COc1ccc(S(=O)(=O)NCC2CCCN(C(=O)CC3CCCC3)C2)cc1 (stereo not given)")
-9.37
>>> number("Cc1ccc(NC(=O)CN(C)S(=O)(=O)c2ccc3c(c2)n(C)c(=O)c(=O)n3C)c(C)c1")
25.1

Input line: Requested field: cell number change. Item: O=C(NCC(=O)N(Cc1ccccc1)C(C(=O)NC1CCCC1)c1ccncc1)c1ccco1 (stereo not given)
Output line: -25

Input line: Next compound up: `CCOc1ccc(N(CC(=O)NC2CCCCCC2)S(=O)(=O)c2ccccc2)cc1`
Output line: 24.3

Input line: Next compound up: `COCCCNC(=O)CN(c1cc(OC)ccc1OC)S(=O)(=O)c1ccccc1`
Output line: 13.9

----------
# methodSummary: qHTS Assay for Lipid Storage Modulators in Drosophila S3 Cells
# testConditions: BODIPY lipid droplet fluorescence, 18-24 h, cells fed with added oleic acid; series mostly up to 46.1 µM
Among all 320,000 compounds or so, about 2,100 (0.66%) were called active. Inconclusive results (about 53%) are left out. Calls come from the whole dose curve; as a rule, active = well fitted inhibition curve with a large enough effect in the signal ratio, with a control signal flat (not every such curve was filed as active); inconclusive = small, poorly fitted or top-dose-only effect, or effect the other way, or a change in a side signal; inactive = flat fitted curve, though single readings scatter; the % refers to the signal ratio. The sample holds actives, similar compounds and a random draw of the others, so the mix is not that of the screen.
Returns: one label drawn from 1 (active), -1 (inactive)

Input line: Tell me the assay call for `O=C1/C(=C/c2cccnc2)CCc2c1[nH]c1ccccc21` please.
Output line: -1

----------
# methodSummary: qHTS Assay for Lipid Storage Modulators in Drosophila S3 Cells
# testConditions: BODIPY lipid droplet fluorescence, 18-24 h, cells fed with added oleic acid; series mostly up to 46.1 µM
The campaign covered roughly 320,000 compounds. About 2,100 (0.66%) were called active. About 53% were inconclusive and are not listed. The call rests on the fitted dose curve; in most records, active means well fitted inhibition curve with a large enough effect in the signal ratio, with a control signal flat (not every such curve was filed as active); inconclusive means small, poorly fitted or top-dose-only effect, or effect the other way, or a change in a side signal; inactive means flat fitted curve, though single readings scatter; the % refers to the signal ratio. This excerpt belongs to a sample that is enriched for actives.
Returns: one label drawn from active, inactive

Answered examples (3):
>>> answerlabel("Cc1cccc(NC(=O)c2cccc(N3C(=O)C4C5C=CC(C6CC56)C4C3=O)c2)c1 (stereo not given)")
"active"
>>> answerlabel("O=C(Nc1ccc(F)cc1)c1cccc(N2C(=O)C3C4C=CC(C4)C3C2=O)c1 (stereo not given)")
"inactive"
>>> answerlabel("Cc1ccc(NC(=O)c2ccccc2NS(=O)(=O)c2ccc(Cl)s2)cc1S(=O)(=O)N1CCOCC1")
"inactive"

Input line: Tell me the assay call for O=C(Nc1ccccc1)c1cccc(N2C(=O)C3C4C=CC(C5CC45)C3C2=O)c1 (stereo not given) please.
Output line: active

Input line: Next molecule up: `Cc1cccc(NC(=O)c2cccc(N3C(=O)CCC3=O)c2)c1`
Output line: inactive

----------
# methodSummary: qHTS Assay for Lipid Storage Modulators in Drosophila S3 Cells
# testConditions: BODIPY lipid droplet fluorescence, 18-24 h, cells fed with added oleic acid; series mostly up to 46.1 µM
Screen size: about 320,000 compounds; about 2,100 (0.66%) were called active. Roughly 53% stayed inconclusive and do not appear here. Calls come from the whole dose curve; as a rule, active = well fitted inhibition curve with a large enough effect in the signal ratio, with a control signal flat (not every such curve was filed as active); inconclusive = small, poorly fitted or top-dose-only effect, or effect the other way, or a change in a side signal; inactive = flat fitted curve, though single readings scatter; the % refers to the signal ratio. This excerpt belongs to a sample that is enriched for actives.
Returns: one label drawn from T = active, F = inactive

>>> answerlabel("CCN(c1ccccc1)S(=O)(=O)c1cc(NC(=O)COC(=O)C2CC2)ccc1Cl")
"F"
>>> answerlabel("Cc1ccc(-n2c3c(c(=O)[nH]c2=O)C(NS(=O)(=O)c2ccc(C)cc2)(C(F)(F)F)C(=O)N3)cc1 (stereo unspecified)")
"F"
>>> answerlabel("COc1cc(C(=O)N2CCN(C3CCCCC3)CC2)cc(OC)c1OC")
"F"
>>> answerlabel("CC1(C)CC2(C)Nc3ccccc3N2C(=S)N1 (stereo unspecified)")
"F"
>>> answerlabel("COc1ccc(C(c2sc3nc(C)nn3c2O)N2CCc3ccccc3C2)cc1 (stereo unspecified)")
"F"

Input line: Tell me the assay call for `Cc1cc(C)cc(C(=O)N2CCC3(CC2)NCCc2[nH]cnc23)c1` please.
Output line: F

Input line: Next compound up: `CC[C@@H](NS(=O)(=O)c1ccc(C)cc1)C(=O)Oc1ccc2c3c(c(=O)oc2c1)CCC3`
Output line: F

Input line: Next compound up: `CCCCCn1cnnc1SCC(=O)c1ccc2c(c1)OCO2`
Output line: F

Input line: Next compound up: CCc1c(C(C)S(=O)(=O)c2ccc(C)cc2)[nH]c(=O)n1-c1ccc(C)cc1 (stereo unspecified)
Output line: T

Input line: Next compound up: COc1ccccc1NC(=O)N1CCCC1C(=O)NCc1ccccc1 (stereo unspecified)
Output line: F

Input line: Next compound up: `Cc1cc2c3c(ccc(C)c3n1)N=CN2c1ccccc1`
Output line: F

----------
# methodSummary: qHTS Assay for Lipid Storage Modulators in Drosophila S3 Cells
# testConditions: BODIPY lipid droplet fluorescence, 18-24 h, cells fed with added oleic acid; series mostly up to 46.1 µM
The whole screen tested about 320,000 compounds, of which about 2,100 (0.66%) were called active. Not shown: some 53% with an inconclusive outcome. Calls follow the shape of the dose curve; as a rule, active = well fitted inhibition curve with a large enough effect in the signal ratio, with a control signal flat (not every such curve was filed as active); inconclusive = small, poorly fitted or top-dose-only effect, or effect the other way, or a change in a side signal; inactive = flat fitted curve, though single readings scatter; the % refers to the signal ratio. Only a selection was taken, and actives are over-represented in it overall.
Returns: one label drawn from TRUE = active, FALSE = inactive

>>> answerlabel("COc1ccc(C2/C(=C(/O)c3ccc(C)cc3)C(=O)C(=O)N2c2ccccn2)cc1OC (stereo not drawn)")
"FALSE"
>>> answerlabel("CCc1[nH]nc(C(=O)N2CCCC(Nc3cccc(F)c3)C2)c1C (stereo not drawn)")
"FALSE"
>>> answerlabel("CNS(=O)(=O)c1ccc(NC(=O)c2cncc(Br)c2)cc1")
"FALSE"
>>> answerlabel("CN(C)S(=O)(=O)c1cccc(NC(=O)c2cncc(Br)c2)c1")
"FALSE"
>>> answerlabel("CN1CCN(NC(=O)c2cc(-c3ccccn3)nc3ccccc23)CC1")
"FALSE"

Input line: Tell me the assay call for `O=C(CSc1ncn[nH]1)Nc1cc(S(=O)(=O)N2CCCC2)ccc1Cl` please.
Output line: FALSE

Input line: Next molecule up: `CCn1cnc2c(Nc3cc(F)cc(F)c3)nc(C#N)nc21`
Output line: TRUE

Input line: Next molecule up: `Cc1ccc(S(=O)(=O)N(C)C)cc1NC(=O)c1cncc(Br)c1`
Output line: TRUE

Input line: Next molecule up: `Cc1cc(C)c(C#N)c(Nc2ccc(F)cc2)n1`
Output line: FALSE

Input line: Next molecule up: CCSc1nc2c(c(=O)[nH]c(=O)n2C)n1CC(O)COc1ccccc1 (stereo not drawn)
Output line: FALSE

Input line: Next molecule up: `COc1ccccc1NC(=O)/C(C#N)=C/c1ccncc1`
Output line: TRUE

----------
# methodSummary: qHTS Assay for Lipid Storage Modulators in Drosophila S3 Cells;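 as to cell number change: cells counted by Cell Tracker Red CMTPX staining in the red channel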
# testConditions: BODIPY lipid droplet fluorescence, 18-24 h, cells fed with added oleic acid; measured here: cell count max response
Among all 320,000 compounds or so, about 2,100 (0.66%) were called active. Not shown: some 53% with an inconclusive outcome. The sample as a whole holds a higher share of actives than the screen did.
Quick reference: cell number change of the listed items.
# output: numeric value plus its unit

See these solved cases before continuing.
>>> result("C[C@H](NC(=O)c1nc[nH]c1C(=O)N(C)Cc1ccccc1)C(=O)OC(C)(C)C")
"20.3%"
>>> result("CCNC(=S)N1CCN(c2ccccn2)CC1")
"12.6%"

Input line: Requested field: cell number change. Item: Cc1cc(C)cc(N2CC(C(=O)Nc3cc(C)on3)CC2=O)c1 (stereo not given)
Output line: -8.97%

Input line: Next compound up: `O=C(COC(=O)Cc1ccccc1F)Nc1cc(S(=O)(=O)N2CCOCC2)ccc1N1CCCC1`
Output line: 0.15%

Input line: Next compound up: `C[C@H](NC(=O)c1nc[nH]c1C(=O)N[C@@H](Cc1ccccc1)C(=O)OC(C)(C)C)C(=O)OC(C)(C)C`
Output line: 1.8%
